The origin of these recorded values is the supplement of paper PMC10981050.

Catalogue of compounds with associated cell viability
- Test system: K562;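 note: after 48 h exposure read by CellTiter-Glo luminescence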
- PROCEDURE_DETAILS: cell viability relative to vehicle control; higher = less cytotoxic
- CONDITIONS: 10 µM; SRSF2 genotype: SRSF2 wt/wt
Counter-ions that a name gives are not always drawn.

Ask: Output cell viability of CCOC(=O)[C@@H](N)Cc1ccc(-c2cc(O[C@H](c3ccc(Cl)cc3-n3ccc(C)n3)C(F)(F)F)nc(N)n2)cc1 [LX1606 hippurate]
Reply: 57.2%

Ask: Output cell viability of CC(C)=CCOc1ccc(/C=C/C(=O)c2ccc(OCC=C(C)C)cc2OCC(=O)O)cc1 [Sofalcone]
Reply: 107%

Ask: Output cell viability of "Cc1cc(NC(=O)c2cccc(NC(=O)/C=C/CN(C)C)c2)ccc1Nc1nccc(-c2cccnc2)n1"
Reply: 65.5%

Ask: Output cell viability of O=c1cc(-c2ccc(O)cc2)oc2cccc(O)c12 [4',5-Dihydroxyflavone]
Reply: 89.7%

Ask: Output cell viability of CCCCCCCCCCCC1=C(O)C(=O)C=C(O)C1=O [Embelin]
Reply: 85.5%

Ask: Output cell viability of CC(C)=CCC[C@](C)(O[C@@H]1O[C@H](CO[C@@H]2O[C@H](CO)[C@@H](O)[C@H](O)[C@H]2O)[C@@H](O)[C@H](O)[C@H]1O)[C@H]1CC[C@]2(C)[C@@H]1[C@H](O)C[C@@H]1[C@@]3(C)CC[C@H](O[C@@H]4O[C@H](CO)[C@@H](O)[C@H](O)[C@H]4O[C@@H]4O[C@H](CO)[C@@H](O)[C@H](O)[C@H]4O)C(C)(C)[C@@H]3CC[C@]12C [Ginsenoside Rb1]
Reply: 105%

Ask: Output cell viability of CCOc1nc2cccc(C(=O)O)c2n1Cc1ccc(-c2ccccc2-c2nnn[nH]2)cc1 [Candesartan (Atacand)]
Reply: 89.3%

Ask: Output cell viability of CC1(C)CCC[C@](C)([C@H]2CC[C@]3(C)[C@@H]2[C@H](O)C[C@@H]2[C@@]4(C)CC[C@H](O)C(C)(C)[C@@H]4[C@@H](O)C[C@]23C)O1 [Panaxatriol]
Reply: 97.5%

Ask: Output cell viability of "CCN(CC)c1ccc(C=NNC(=O)c2ccc(O)cc2)cc1"
Reply: 51.9%

Ask: Output cell viability of "CCS(=O)(=O)c1cccc(-c2cc(C(=O)NC3CCN(C)CC3)c(C)c3[nH]c4ncc(C)cc4c23)c1"
Reply: 21.9%

Continuing:
Ask: Output cell viability of CN1[C@@H]2CC[C@H]1C[C@@H](OC(=O)c1c[nH]c3ccccc13)C2 [Tropisetron HCl]
Reply: 96.6%

Ask: Output cell viability of Cc1ccccc1C(=O)Nc1ccc(C(=O)N2CCCC(N(C)C)c3ccccc32)cc1 (centres undefined) [Mozavaptan]
Reply: 85%

Ask: Output cell viability of NC(=O)[C@H](CCCN=C(N)CCl)NC(=O)c1ccccc1 [Cl-amidine]
Reply: 95.7%

Ask: Output cell viability of O=C1c2c(O)cccc2C([C@@H]2O[C@H](CO)[C@@H](O)[C@H](O)[C@H]2O)c2cc(CO)cc(O)c21 (some centres undefined) [Aloin (Barbaloin)]
Reply: 98.5%
